Molecular target: T1, C-terminally FLAG-tagged human Gas6 recombinant protein (hGas6-F) (human, UniProt Q14393 31-678, gamma-carboxylated glutamic acid residues in the Gla domain (producer cells co-express rat VKOR and human GGCX); positions not given)
T1 construct: also called human Gas6-F; human Gas6 protein
T1 sequence: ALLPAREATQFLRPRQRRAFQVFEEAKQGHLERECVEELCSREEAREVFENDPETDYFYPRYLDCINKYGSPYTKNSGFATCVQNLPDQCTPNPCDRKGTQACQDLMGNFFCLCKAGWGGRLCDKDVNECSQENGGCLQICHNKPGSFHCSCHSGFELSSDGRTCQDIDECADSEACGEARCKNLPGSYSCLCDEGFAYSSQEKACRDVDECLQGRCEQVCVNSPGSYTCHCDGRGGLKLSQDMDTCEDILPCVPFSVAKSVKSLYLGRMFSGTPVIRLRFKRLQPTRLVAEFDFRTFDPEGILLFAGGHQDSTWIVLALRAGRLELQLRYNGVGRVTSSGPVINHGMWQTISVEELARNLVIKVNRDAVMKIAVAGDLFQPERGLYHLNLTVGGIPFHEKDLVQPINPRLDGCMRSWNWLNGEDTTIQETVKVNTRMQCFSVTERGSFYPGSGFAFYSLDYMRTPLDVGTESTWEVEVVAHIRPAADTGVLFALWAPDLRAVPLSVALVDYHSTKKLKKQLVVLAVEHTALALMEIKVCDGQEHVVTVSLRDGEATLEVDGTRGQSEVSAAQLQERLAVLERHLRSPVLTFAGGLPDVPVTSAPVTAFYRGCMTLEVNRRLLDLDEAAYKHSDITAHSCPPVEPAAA
Assay: SPR Biacore T100, captured antibody, Gas6 analyte, first test
Description: An anti-human IgG antibody was immobilized on a CM5 sensor chip (manufactured by GE Healthcare Japan Corp.) using Human Antibody Capture Kit (manufactured by GE Healthcare Japan Corp.) according to the attached manual. Each test antibody adjusted to 1 μg/mL was added for 10 seconds at a flow rate of 10 μL/min to flow cells. […] The obtained sensorgram was analyzed using Bia Evaluation Software (manufactured by GE Healthcare Japan Corp.), and the kinetic constant of each antibody was calculated.
Each item that follows carries a reported kon.

Completed entries (count: 3):
INSERT INTO results (binder, reported_result) VALUES
  ('hzKM5321 LV7aHV0 antibody (antibody, V domains shown, Humanized; variant human IgG4 constant region (EU S228P, L235E, R409K), human kappa; also called B-09; LV7aHV0) VH: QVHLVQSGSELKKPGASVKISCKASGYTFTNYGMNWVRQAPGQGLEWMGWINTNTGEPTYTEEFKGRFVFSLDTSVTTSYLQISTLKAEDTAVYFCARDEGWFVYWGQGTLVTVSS VL: ETTLTQSPSSLSVSTGDRVTITCITSTDIDDDMNWYQQKPGKPPKLLISEGNTLRPGVPSRFSSSGSGTDFTFTISSTQPEDFADYYCLQTDSVPLTFGQGTKVEIK', '> 133000 M⁻¹ s⁻¹'),
  ('hzKM5321 LV6HV0 antibody (antibody, V domains shown, Humanized; variant human IgG4 constant region (EU S228P, L235E, R409K), human kappa; also called B-08; LV6HV0) VH: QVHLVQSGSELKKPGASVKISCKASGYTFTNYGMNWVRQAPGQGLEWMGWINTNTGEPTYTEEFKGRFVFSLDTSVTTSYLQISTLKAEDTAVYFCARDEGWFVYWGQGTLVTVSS VL: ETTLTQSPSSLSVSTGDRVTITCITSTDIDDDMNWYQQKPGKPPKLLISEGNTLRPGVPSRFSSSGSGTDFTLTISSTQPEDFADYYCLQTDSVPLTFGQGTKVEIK', '> 134000 M⁻¹ s⁻¹'),
  ('hzKM5320 LV5HV6 antibody (antibody, V domains shown, Humanized; variant human IgG4 constant region (EU S228P, L235E, R409K), human kappa; also called A-25) VH: QVQLVQSGPELKKPGASVKISCKASGYTFTNYGMNWVKQAPGQGLKWMGWINTETGEPTYSDDFKGRFVFSLDTSVSTAYLQISSLKAEDTATYFCAREDGYYGTLDYWGQGTTVTVSS VL: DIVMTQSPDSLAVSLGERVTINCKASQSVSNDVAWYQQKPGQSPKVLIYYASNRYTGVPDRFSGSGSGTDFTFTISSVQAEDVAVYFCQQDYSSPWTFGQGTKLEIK', '> 81700 M⁻¹ s⁻¹');

Okay, now this binder:
Prompt: Given hzKM5320 LV2bHV8 antibody (antibody, V domains shown, Humanized; variant human IgG4 constant region (EU S228P, L235E, R409K), human kappa; also called A-14) VH: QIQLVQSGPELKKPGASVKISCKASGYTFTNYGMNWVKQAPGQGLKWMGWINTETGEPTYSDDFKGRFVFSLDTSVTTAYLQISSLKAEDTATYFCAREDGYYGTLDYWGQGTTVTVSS VL: DVVMTQSPDSLAVSAGERVTINCKASQSVSNDVAWYQQKPGQSPKLLIYYASNRYTGVPDRFSGSGSGTDFTFTISSLQAEDVAVYYCQQDYSSPWTFGQGTKLEIK , state its recorded kon.
Response: > 81000 M⁻¹ s⁻¹
